B1: POU domain, class 2, transcription factor 3, residues 186 to 260; numbered along this chain, Q9UKI9 (parent)
chain: SDLEELEKFAKTFKQRRIKLGFTQGDVGLAMGKLYGNDFSQTTISRFEALNLSFKNMCKLKPLLEKWLNDAESSP

Variants of: B1
Assay procedure: abundance fitness (aPCA) (normalised: wild type 0, dead -1); higher = more abundant; growth selection in yeast, the domain comes from the species named
Measurement setup: Homo sapiens
Each entry gets false if its abundance fitness stays under -0.02, and true if its abundance fitness is -0.02 or above.

Below, 3 variants whose answers are already recorded.
SDLEELEKFAKTFKQRRMKLGFTQGDVGLAMGKLYGNDFSQTTISRFEALNLSFKNMCKLKPLLEKWLNDAESSP [I18M]; true
SDLEELEKFAKTFKQRRIKLGFTQGDVGLAMGKLYGNDFSQTTISRFEALNLSFQNMCKLKPLLEKWLNDAESSP [K55Q]; true
SDLEELEKFAKTFKQRRIKLGFTQGDVGLAMGKLYGNDFSQTTISRFEALNLSFKNMCKLKPGLEKWLNDAESSP [L63G]; false

Attention now shifts to the item below.
Incoming: Evaluate SDLEELEKFAKTFKQRRIKLGFTQGDVGLAMGKLYGNDFSQTTQSRFEALNLSFKNMCKLKPLLEKWLNDAESSP [I44Q] : abundance fitness at minimum -0.02?
Outgoing: false

Entry source: the Human Domainome abundance scans (Beltran et al. 2025)
